tested on: SF-539 CNS; experiment: NCI tumour cell line growth inhibition, 48 h
QUANTITY KIND: TGI

Ask: Bench note: what TGI did "COc1cc2c(OC)c3cc(C)oc(=O)c3c(O)c2c(O)c1-c1c(OC)cc2c(OC)c3cc(C)oc(=O)c3c(O)c2c1O" show?
Result: 35.7 µM

Ask: Bench note: what TGI did "Nc1ccc(N=Nc2ccc(-c3ccc(N=Nc4c(S(=O)(=O)O)cc5cc(S(=O)(=O)O)c(N=Nc6ccc([N+](=O)[O-])cc6)c(N)c5c4O)cc3)cc2)c2cc(S(=O)(=O)O)ccc12" show?
Result: > 100 µM

Ask: Bench note: what TGI did O=C(OC1C#CCSCC#C/C=C\1)c1cnc2ccccc2n1 (centres undefined) show?
Result: > 100 µM

***
Ask: Bench note: what TGI did "Cc1cc2c(cc1C)[n+](=O)c(C(=O)CC(=O)C(=O)Nc1ccccc1C)c(C)n2[O-]" show?
Result: > 100 µM

Ask: Bench note: what TGI did "O=C(NC(=S)Nc1ccc(-c2nc3ccccc3[nH]2)cc1)c1ccc2ccccc2c1" show?
Result: 4.53 µM

Ask: Bench note: what TGI did "NS(=O)(=O)c1ccc(N=Nc2c(O)[nH]c3cccc(CCc4ccncc4)c23)cc1" show?
Result: > 25 µM

----------
system: SK-MEL-5 melanoma; experiment: NCI tumour cell line growth inhibition, 48 h
Examples of compounds with documented TGI follow.
Please respond with the number in µM and leave the unit unwritten.

Ask: Bench note: what TGI did "CC(C)[C@]12O[C@H]1[C@@H]1O[C@]13[C@]1(O[C@H]1C[C@H]1C4=C(CC[C@@]13C)C(=O)OC4)[C@@H]2OC(=O)OC(C)(C)C" show?
Result: 0.0247

***
Ask: Bench note: what TGI did Cc1ccc(NC(=O)CC2SC(=Nc3cccc(Cl)c3C)NC2=O)cc1 (stereo unspecified) show?
Result: 96.5

----------
Examples of compounds with documented TGI follow.
test system: SF-295 CNS; assay: NCI tumour cell line growth inhibition, 48 h

Example cases with answers are listed next.
Ask: Bench note: what TGI did Cc1ccc(OC2CC(n3cnc4c(=O)[nH]c(Br)nc43)OC2Oc2ccc(C)cc2)cc1 (centres undefined) show?
Result: 61.9 µM

Ask: Bench note: what TGI did "Brc1ccc(N=C/C=C(\Nc2ccc(Br)cc2)C23CC4CC(CC(C4)C2)C3)cc1" show?
Result: > 92 µM

Ask: Bench note: what TGI did "CCOC(=O)c1c2c(n(Cc3ccccc3)c1C)-c1nc[nH]c1C(=O)C2=O" show?
Result: 30.9 µM

***
Ask: Bench note: what TGI did "N[C@@H]1c2c(Br)sc(Br)c2C(=O)[C@H]1Br" show?
Result: > 100 µM

----------
system: M14 melanoma; assay: NCI tumour cell line growth inhibition, 48 h
QUANTITY KIND: TGI

Example cases with answers are listed next.
Ask: Bench note: what TGI did "COc1cc(/C=C(\C)c2ccc3c(c2)OCO3)cc(OC)c1OC" show?
Result: > 100 µM

Ask: Bench note: what TGI did "Cc1ccc(NC(=O)C23CC4CC(CC(C4)C2)C3)c(C(=O)NNC(=O)c2ccc(Cl)cc2)c1" show?
Result: > 100 µM

Ask: Bench note: what TGI did c1ccc(C2C3=C(c4ccccc4CC3)N3c4cc5nc6ccccc6nc5cc4NC34CCCCC24)cc1 (stereo unspecified) show?
Result: > 10 µM

***
Ask: Bench note: what TGI did CCN(CC)CCC1CCCCN1CC(=O)N1c2ccccc2NC(=O)CC1C (stereo unspecified) show?
Result: > 100 µM

Ask: Bench note: what TGI did "Nc1ccc(-c2nnc(-c3c(Cl)c(Cl)c(Cl)c(Cl)c3-c3nc4ccc(C(=O)c5ccccc5)cc4[nH]3)o2)cc1" show?
Result: 34.8 µM

Ask: Bench note: what TGI did "COc1ccc(C(=O)O[C@@H]2CCN3CC[C@H](C)[C@H]23)cc1" show?
Result: > 100 µM

Ask: Bench note: what TGI did Cc1ccc(S(=O)(=O)NN=C2C(C)CC(C(C)(C)C)CC2C)cc1 (stereo unspecified) show?
Result: 26.9 µM

Ask: Bench note: what TGI did "CCN1C2=C(SC(=S)C1=C1SC(C(=O)c3ccccc3)=C(C(=O)c3ccccc3)S1)SC(=Nc1ccccc1)C2=O" show?
Result: > 100 µM

Ask: Bench note: what TGI did "N[C@@H]1c2c(Br)sc(Br)c2C(=O)[C@H]1Br" show?
Result: 50.9 µM

Ask: Bench note: what TGI did CC1OC(n2ccc3ccc([N+](=O)[O-])cc32)C(O)C(O)C1O (stereo unspecified) show?
Result: > 100 µM

Ask: Bench note: what TGI did CC(=O)OC1C(COC(N)=O)OC(n2c(-c3ccc(C)cc3)cc(-c3ccccc3)c(C#N)c2=O)C(OC(C)=O)C1OC(C)=O (stereo unspecified) show?
Result: > 100 µM
